Source listed as patent US6147100A.

test system: production of prostaglandin E2 by human fibroblasts; test: Inhibition of Production of Prostaglandin E2 in Human Fibroblasts (IL-1 stimulation); format: cell-based; details: Fibroblast; human fibroblasts under stimulation with IL-1
OBSERVED_PROPERTY: IC50 (µM)
Your answer should be a plain number; it is taken to be in µM.

// known answers, use as guide
1. O=C1NC(=O)/C(=C/c2ccc(C(=O)NC[C@@H]3C[C@@H](OCc4ccccc4-c4ccccc4)CN3C(=O)c3ncccc3C(=O)c3ccccc3)cc2)S1    0.23
2. O=C1NC(=O)/C(=C/c2ccc(C(=O)NC[C@@H]3C[C@@H](OCc4ccccc4-c4cccc5ccccc45)CN3C(=O)c3ccccc3C(=O)c3ccc(F)cc3)cc2)S1    0.18
3. O=C1NC(=O)/C(=C/c2ccc(C(=O)NC[C@@H]3C[C@@H](Oc4ccccc4-c4ccc5ccccc5c4)CN3C(=O)c3ccccc3C(=O)c3ccc(F)cc3)cc2)S1    0.39
4. O=C1NC(=O)/C(=C/c2ccc(C(=O)NC[C@@H]3C[C@@H](SCc4ccccc4-c4ccccc4)CN3C(=O)c3ccccc3C(=O)c3ccc(F)cc3)cc2)S1    0.49
5. O=C1NC(=S)S/C1=C\c1ccc(NC(=O)[C@@H]2C[C@@H](SCc3ccccc3-c3ccccc3)CN2C(=O)c2ccccc2C(=O)c2ccc(F)cc2)cc1    0.96

Form: item O=C1NC(=O)/C(=C/c2ccc(C(=O)NC[C@@H]3C[C@@H](OCc4ccccc4-c4ccccc4)CN3C(=O)CCC(=O)c3ccc(F)cc3)cc2)S1 ; test system production of prostaglandin E2 by human fibroblasts; IC50: 8.9

Form: item O=C1NC(=O)/C(=C/c2ccc(C(=O)NC[C@@H]3C[C@@H](OCc4ccc(F)cc4F)CN3C(=O)c3ccccc3C(=O)c3ccccc3)cc2)S1 ; test system production of prostaglandin E2 by human fibroblasts; IC50: 0.9

Form: item O=C1NC(=O)/C(=C/c2ccc(C(=O)NC[C@@H]3C[C@@H](OCc4ccccc4I)CN3C(=O)c3ccccc3C(=O)c3ccc(F)cc3)cc2)S1 ; test system production of prostaglandin E2 by human fibroblasts; IC50: 0.48

Form: item O=C1NC(=O)/C(=C/c2ccc(C(=O)NC[C@H]3C[C@@H](SCc4ccccc4-c4ccccc4)CN3C(=O)c3ccccc3C(=O)c3ccc(F)cc3)cc2)S1 ; test system production of prostaglandin E2 by human fibroblasts; IC50: 1.2

Form: item O=C1NC(=O)/C(=C/c2ccc(CC[C@@H]3C[C@@H](OCc4ccccc4-c4ccccc4)CN3C(=O)c3ccccc3C(=O)c3ccc(F)cc3)cc2)S1 ; test system production of prostaglandin E2 by human fibroblasts; IC50: 1.1

Form: item O=C1NC(=S)S/C1=C\c1ccc(C=C[C@@H]2C[C@@H](OCc3ccccc3-c3ccccc3)CN2C(=O)c2ccccc2C(=O)c2ccc(F)cc2)cc1 ; test system production of prostaglandin E2 by human fibroblasts; IC50: 6

* * *

system: production of prostaglandin E2 by human fibroblasts; assay: Inhibition of Production of Prostaglandin E2 in Human Fibroblasts (IL-1 stimulation); assay type: cell-based; conditions: Fibroblast; human fibroblasts under stimulation with IL-1
pIC50: −log10 of the molar value.
Rule: t for pIC50 not less than 6, f for anything less.

1) O=C1NC(=O)/C(=C/c2ccc(C(=O)NC[C@@H]3C[C@@H](OCc4ccccc4-c4ccc(F)cc4)CN3C(=O)c3ccccc3C(=O)c3ccc(F)cc3)cc2)S1 [Compound A-30]    t
2) O=C1NC(=O)/C(=C/c2ccc(NC(=O)[C@@H]3C[C@@H](OCc4ccccc4-c4ccccc4)CN3C(=O)c3ccccc3C(=O)c3ccc(F)cc3)s2)S1 [Compound B-8]    f

[Q] Threshold query (pIC50 >= 6) on O=C1NC(=O)/C(=C/c2ccc(C(=O)NC[C@@H]3C[C@@H](OCc4ccccc4-c4ccccc4)CN3C(=O)c3ccccc3C(=O)c3ccsc3)cc2)S1 [Compound A-18]
[A] t

[Q] Threshold query (pIC50 >= 6) on O=C1NC(=O)/C(=C/c2ccc(C(=O)NC[C@@H]3C[C@@H](Oc4ccccc4-c4ccccc4-c4ccccc4)CN3C(=O)c3ccccc3C(=O)c3ccc(F)cc3)cc2)S1 [Compound A-103]
[A] t

* * *

tested on: production of prostaglandin E2 by human fibroblasts; assay: Inhibition of Production of Prostaglandin E2 in Human Fibroblasts (IL-1 stimulation); format: cell-based; conditions: Fibroblast; human fibroblasts under stimulation with IL-1
Measured log10 IC50 accompanies every entry in the list below.
Reminder: these figures are log10 of reported IC50, in nM before transformation.

// known answers, use as guide
1) Cc1ccc(C(=O)c2ccccc2C(=O)N2C[C@H](OCc3ccccc3-c3ccccc3)C[C@H]2C(=O)Nc2ccc(/C=C3\SC(=S)NC3=O)cc2)cc1    3.85
2) O=C1NC(=S)S/C1=C\c1ccc(S(=O)(=O)NC[C@@H]2C[C@@H](SCc3ccccc3-c3ccccc3)CN2C(=O)c2ccccc2C(=O)c2ccc(F)cc2)cc1    3.11
3) O=C1NC(=O)/C(=C/c2ccc(NC(=O)[C@@H]3C[C@@H](SCc4ccccc4-c4ccccc4)CN3C(=O)c3ccccc3C(=O)c3ccc(F)cc3)s2)S1    3.76
4) O=C1NC(=O)/C(=C/c2ccc(NC(=O)[C@@H]3C[C@@H](SCc4ccccc4-c4ccccc4)CN3C(=O)c3ccccc3C(=O)c3ccc(F)cc3)cc2)S1    2.08

log10 IC50 reading for O=C1NC(=O)/C(=C/c2ccc(C(=O)NC[C@@H]3C[C@@H](OCc4ccccc4-c4ccc5ccccc5c4)CN3C(=O)c3ccccc3C(=O)c3ccc(F)cc3)cc2)S1 : 2.26

* * *

tested on: production of prostaglandin E2 by human fibroblasts; assay: Inhibition of Production of Prostaglandin E2 in Human Fibroblasts (IL-1 stimulation); type: cell-based; details: Fibroblast; human fibroblasts under stimulation with IL-1
pIC50: −log10 of the molar value.
Rule: Yes for pIC50 not less than 6, No for anything less.

// known answers, use as guide
1. O=C1NC(=O)/C(=C/c2ccc(C(=O)NC[C@@H]3C[C@@H](Oc4ccccc4C4CCCC4)CN3C(=O)c3ccccc3C(=O)c3ccc(F)cc3)cc2)S1 [Compound A-76]    Yes
2. Cc1ccc(C(=O)c2ccccc2C(=O)N2C[C@H](OCc3ccccc3-c3ccccc3)C[C@H]2C(=O)Nc2ccc(/C=C3\SC(=O)NC3=O)cc2)cc1 [Compound B-5]    No

[Q] Threshold query (pIC50 >= 6) on CCN(CC)c1cccc(O[C@@H]2C[C@@H](CNC(=O)c3ccc(/C=C4\SC(=O)NC4=O)cc3)N(C(=O)c3ccccc3C(=O)c3ccc(F)cc3)C2)c1 [Compound A-89]
[A] Yes

[Q] Threshold query (pIC50 >= 6) on O=C1NC(=O)/C(=C/c2ccc(COC[C@@H]3C[C@@H](OCc4ccccc4-c4ccccc4)CN3C(=O)c3ccccc3C(=O)c3ccc(F)cc3)cc2)S1 [Compound C-1]
[A] No

* * *

Measured log10(IC50) accompanies every entry in the list below.
system: production of prostaglandin E2 by human fibroblasts; assay: Inhibition of Production of Prostaglandin E2 in Human Fibroblasts (IL-1 stimulation); assay type: cell-based; details: Fibroblast; human fibroblasts under stimulation with IL-1
Reminder: these figures are log10 of reported IC50, in nM before transformation.

// known answers, use as guide
1. O=C1NC(=O)/C(=C/c2ccc(C(=O)NC[C@@H]3C[C@H](SCc4ccccc4)CN3C(=O)c3ccccc3C(=O)c3ccccc3)cc2)S1    2.82
2. O=C1NC(=O)/C(=C/c2ccc(NC(=O)[C@@H]3C[C@@H](OCc4ccccc4-c4ccccc4)CN3C(=O)c3ccccc3C(=O)c3ccc(F)cc3)cc2)S1    4.08
3. O=C1NC(=O)/C(=C/c2ccc(C(=O)NC[C@@H]3C[C@@H](Oc4ccc5ccccc5c4-c4ccccc4)CN3C(=O)c3ccccc3C(=O)c3ccc(F)cc3)cc2)S1    1.97
4. O=C1NC(=O)/C(=C/c2ccc(C(=O)NC[C@@H]3C[C@@H](Oc4ccccc4-c4cccc([N+](=O)[O-])c4)CN3C(=O)c3ccccc3C(=O)c3ccc(F)cc3)cc2)S1    2.67

Okay, next one:
log10(IC50) reading for O=C1NC(=O)/C(=C/c2ccc(C(=O)NC[C@@H]3C[C@@H](OC(c4ccccc4)c4ccccc4)CN3C(=O)c3ccccc3C(=O)c3ccc(F)cc3)cc2)S1 : 3.34

* * *

Measured IC50 accompanies every entry in the list below.
Target: cPLA2 (Homo sapiens)
Sequence (P47712 1-749): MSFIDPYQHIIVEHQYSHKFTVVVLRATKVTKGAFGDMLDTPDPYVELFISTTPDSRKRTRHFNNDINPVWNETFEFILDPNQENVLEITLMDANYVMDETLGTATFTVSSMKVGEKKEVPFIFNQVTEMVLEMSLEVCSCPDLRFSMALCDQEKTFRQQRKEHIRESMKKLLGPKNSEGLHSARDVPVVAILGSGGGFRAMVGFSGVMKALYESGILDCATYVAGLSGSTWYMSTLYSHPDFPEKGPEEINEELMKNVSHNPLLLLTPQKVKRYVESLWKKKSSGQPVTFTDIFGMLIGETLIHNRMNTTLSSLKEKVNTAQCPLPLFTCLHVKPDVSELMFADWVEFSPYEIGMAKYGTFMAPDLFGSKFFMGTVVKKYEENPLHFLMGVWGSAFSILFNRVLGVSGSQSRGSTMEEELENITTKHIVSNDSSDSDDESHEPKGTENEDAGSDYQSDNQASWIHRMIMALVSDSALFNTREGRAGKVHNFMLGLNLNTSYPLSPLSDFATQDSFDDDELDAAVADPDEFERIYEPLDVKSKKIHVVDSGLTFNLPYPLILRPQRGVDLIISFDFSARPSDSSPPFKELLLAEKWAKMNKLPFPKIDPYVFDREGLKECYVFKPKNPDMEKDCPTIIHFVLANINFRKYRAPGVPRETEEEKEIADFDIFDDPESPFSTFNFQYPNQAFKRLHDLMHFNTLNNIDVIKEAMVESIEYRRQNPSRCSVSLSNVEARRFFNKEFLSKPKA
Your answer should be a plain number; it is taken to be in µM.

1) O=C1NC(=O)/C(=C/c2ccc(S(=O)(=O)NC[C@@H]3C[C@@H](OCc4ccccc4-c4ccccc4)CN3C(=O)c3ccccc3C(=O)c3ccc(F)cc3)cc2)S1    0.26
2) Cc1cccc(-c2ccccc2O[C@@H]2C[C@@H](CNC(=O)c3ccc(/C=C4\SC(=O)NC4=O)cc3)N(C(=O)c3ccccc3C(=O)c3ccc(F)cc3)C2)c1    0.044
3) O=C1NC(=S)S/C1=C\c1ccc(NC(=O)[C@@H]2C[C@@H](SCc3ccccc3-c3ccccc3)CN2C(=O)c2ccccc2C(=O)c2ccc(F)cc2)cc1    0.023
4) O=C1NC(=O)/C(=C/c2ccc(C(=O)NC[C@@H]3C[C@@H](Oc4ccccc4-c4ccc5c(c4)OCO5)CN3C(=O)c3ccccc3C(=O)c3ccc(F)cc3)cc2)S1    0.062

Okay, next one:
IC50 reading for O=C1NC(=O)/C(=C/c2cccc(C(=O)NC[C@@H]3C[C@@H](OCc4ccccc4-c4ccccc4)CN3C(=O)c3ccccc3C(=O)c3ccc(F)cc3)c2)S1 : 2.5
